Every entry's value here was drawn from paper PMC6251712.

test.target: T1, SHIP2-SH2 Q82A (human, UniProt O15357 20-117, Q82A)
T1 sequence (looked up): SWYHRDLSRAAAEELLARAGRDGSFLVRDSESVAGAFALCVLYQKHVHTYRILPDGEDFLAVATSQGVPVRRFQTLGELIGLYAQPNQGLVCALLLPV
test.name: fluorescence polarisation
pKd: −log10 of the molar value. Non-standard residues stand in square brackets, D forms with d. No end group written: not given here. FAM = fluorescent label on the peptide N-terminus (FAM, not expanded in the evidence); pY = N[C@@H](Cc1ccc(OP(=O)(O)O)cc1)C(=O)O
measurement.label: pKd

INSERT INTO results (binder, obs_value) VALUES
  ('{FAM}-NAT[pY]VNVK [FAM-labeled c-MET peptide (1353-1360) with Y1356 phosphorylated, FAM-N-A-T-pY-V-N-V-K]', 5.12);
